ASSAY_REMARKS: Selectivity index, ratio of CC50 for human Huh-7 cells to IC50 for Antiviral activity against Ebola virus trVLP infected in human Huh-7 cells
Assay type: toxicity, cell-based
REPORTED_CONDITIONS: read-out: Ratio CC50/IC50

MOLECULE	selectivity ratio
CCCCCCCCCCCCCC(=O)O[C@@H]1[C@H](O)[C@@H](CO[P@@](=O)(N[C@H](C)C(=O)OCC(CC)CC)Oc2ccccc2)O[C@@]1(C#N)c1ccc2c(N)ncnn12	> 74.6
CCCCCCCCCCOCCC(=O)O	> 50
CCCCCCCCCCOCCC(=O)O[C@H]1[C@@H](O)[C@](C#N)(c2ccc3c(N)ncnn23)O[C@@H]1CO[P@@](=O)(N[C@H](C)C(=O)OCC(CC)CC)Oc1ccccc1	46.3
CCSCCCCCCCCCCCC(=O)O	> 50
CCCCCCCCCCCCCC(=O)O[C@H]1[C@@H](OC(=O)CCCCCCCCCCCCC)[C@](C#N)(c2ccc3c(N)ncnn23)O[C@@H]1CO[P@@](=O)(N[C@H](C)C(=O)OCC(CC)CC)Oc1ccccc1	> 4.13
CCCCCCCCCCCCCC(=O)O[C@H]1[C@@H](O)[C@](C#N)(c2ccc3c(N)ncnn23)O[C@@H]1CO[P@@](=O)(N[C@H](C)C(=O)OCC(CC)CC)Oc1ccccc1	> 70.4
CCCCCCCCCCCCCC(=O)O [MYRISTIC ACID]	> 50

----------
Measured selectivity ratio values are reported for all entries that follow.
ASSAY_REMARKS: Selectivity index, ratio of CC50 for African green monkey Vero E6 cells to IC50 for Antiviral activity against SARS coronavirus 2 USA/WA1/2020 infected in Vero E6 cells assessed as reduction in virus-induced cytopathic effect
Type: toxicity, cell-based, Vero C1008
REPORTED_CONDITIONS: read-out: Ratio CC50/IC50
RECORDED_ENDPOINT: selectivity ratio

SUBSTANCE_SMILES	VALUE_REPORTED
CCCCCCCCCCOCCC(=O)O[C@H]1[C@@H](O)[C@](C#N)(c2ccc3c(N)ncnn23)O[C@@H]1CO[P@@](=O)(N[C@H](C)C(=O)OCC(CC)CC)Oc1ccccc1	> 25.6
CCSCCCCCCCCCCCC(=O)O[C@@H]1[C@H](O)[C@@H](CO[P@@](=O)(N[C@H](C)C(=O)OCC(CC)CC)Oc2ccccc2)O[C@@]1(C#N)c1ccc2c(N)ncnn12	> 14.2
CCC(CC)COC(=O)[C@@H](C)N[P@](=O)(OC[C@H]1O[C@@](C#N)(c2ccc3c(N)ncnn23)[C@H](O)[C@@H]1OC(=O)CCCCCCCCCCCN=[N+]=[N-])Oc1ccccc1	> 16.6
CCCCCCCCCCOCCC(=O)O[C@@H]1[C@H](O)[C@@H](CO[P@@](=O)(N[C@H](C)C(=O)OCC(CC)CC)Oc2ccccc2)O[C@@]1(C#N)c1ccc2c(N)ncnn12	> 10.9

----------
ASSAY_REMARKS: Selectivity index, ratio of CC50 for human Huh-7 cells to IC50 for Antiviral activity against Ebola virus trVLP infected in human Huh-7 cells
Assay type: toxicity, cell-based
REPORTED_CONDITIONS: read-out: Ratio CC50/IC50
RECORDED_ENDPOINT: selectivity ratio

SUBSTANCE_SMILES	RELATION_SYMBOL	VALUE_REPORTED
CCCCCCCCCCOCCC(=O)O[C@@H]1[C@H](O)[C@@H](CO[P@@](=O)(N[C@H](C)C(=O)OCC(CC)CC)Oc2ccccc2)O[C@@]1(C#N)c1ccc2c(N)ncnn12	=	50
CCC(CC)COC(=O)[C@@H](C)N[P@](=O)(OC[C@H]1O[C@@](C#N)(c2ccc3c(N)ncnn23)[C@H](O)[C@@H]1OC(=O)CCCCCCCCCCCN=[N+]=[N-])Oc1ccccc1	=	44.4
CCCCCCCCCCCCCCCC(=O)O[C@H]1[C@@H](O)[C@](C#N)(c2ccc3c(N)ncnn23)O[C@@H]1CO[P@@](=O)(N[C@H](C)C(=O)OCC(CC)CC)Oc1ccccc1	>	172
CCSCCCCCCCCCCCC(=O)O[C@@H]1[C@H](O)[C@@H](CO[P@@](=O)(N[C@H](C)C(=O)OCC(CC)CC)Oc2ccccc2)O[C@@]1(C#N)c1ccc2c(N)ncnn12	=	164
CCCCCCCCCCCCCCCC(=O)O[C@@H]1[C@H](O)[C@@H](CO[P@@](=O)(N[C@H](C)C(=O)OCC(CC)CC)Oc2ccccc2)O[C@@]1(C#N)c1ccc2c(N)ncnn12	>	6.94
